Data provenance: patent US20230117034A1

target: CDK12 (nuclear staining in CAL-120 cells) (Homo sapiens); construct: endogenous in cells; host or cells: CAL-120 human breast cancer cells (DSMZ ACC 459); assay: CDK12 nuclear protein level: immunofluorescence/high content analysis (CAL-120); format: cell-based; settings: ratio of IC50 CDK12 high ATP kinase assay to DC50 CDK12 degradation (IF, CAL-120)
Sequence (Q9NYV4 whole entry): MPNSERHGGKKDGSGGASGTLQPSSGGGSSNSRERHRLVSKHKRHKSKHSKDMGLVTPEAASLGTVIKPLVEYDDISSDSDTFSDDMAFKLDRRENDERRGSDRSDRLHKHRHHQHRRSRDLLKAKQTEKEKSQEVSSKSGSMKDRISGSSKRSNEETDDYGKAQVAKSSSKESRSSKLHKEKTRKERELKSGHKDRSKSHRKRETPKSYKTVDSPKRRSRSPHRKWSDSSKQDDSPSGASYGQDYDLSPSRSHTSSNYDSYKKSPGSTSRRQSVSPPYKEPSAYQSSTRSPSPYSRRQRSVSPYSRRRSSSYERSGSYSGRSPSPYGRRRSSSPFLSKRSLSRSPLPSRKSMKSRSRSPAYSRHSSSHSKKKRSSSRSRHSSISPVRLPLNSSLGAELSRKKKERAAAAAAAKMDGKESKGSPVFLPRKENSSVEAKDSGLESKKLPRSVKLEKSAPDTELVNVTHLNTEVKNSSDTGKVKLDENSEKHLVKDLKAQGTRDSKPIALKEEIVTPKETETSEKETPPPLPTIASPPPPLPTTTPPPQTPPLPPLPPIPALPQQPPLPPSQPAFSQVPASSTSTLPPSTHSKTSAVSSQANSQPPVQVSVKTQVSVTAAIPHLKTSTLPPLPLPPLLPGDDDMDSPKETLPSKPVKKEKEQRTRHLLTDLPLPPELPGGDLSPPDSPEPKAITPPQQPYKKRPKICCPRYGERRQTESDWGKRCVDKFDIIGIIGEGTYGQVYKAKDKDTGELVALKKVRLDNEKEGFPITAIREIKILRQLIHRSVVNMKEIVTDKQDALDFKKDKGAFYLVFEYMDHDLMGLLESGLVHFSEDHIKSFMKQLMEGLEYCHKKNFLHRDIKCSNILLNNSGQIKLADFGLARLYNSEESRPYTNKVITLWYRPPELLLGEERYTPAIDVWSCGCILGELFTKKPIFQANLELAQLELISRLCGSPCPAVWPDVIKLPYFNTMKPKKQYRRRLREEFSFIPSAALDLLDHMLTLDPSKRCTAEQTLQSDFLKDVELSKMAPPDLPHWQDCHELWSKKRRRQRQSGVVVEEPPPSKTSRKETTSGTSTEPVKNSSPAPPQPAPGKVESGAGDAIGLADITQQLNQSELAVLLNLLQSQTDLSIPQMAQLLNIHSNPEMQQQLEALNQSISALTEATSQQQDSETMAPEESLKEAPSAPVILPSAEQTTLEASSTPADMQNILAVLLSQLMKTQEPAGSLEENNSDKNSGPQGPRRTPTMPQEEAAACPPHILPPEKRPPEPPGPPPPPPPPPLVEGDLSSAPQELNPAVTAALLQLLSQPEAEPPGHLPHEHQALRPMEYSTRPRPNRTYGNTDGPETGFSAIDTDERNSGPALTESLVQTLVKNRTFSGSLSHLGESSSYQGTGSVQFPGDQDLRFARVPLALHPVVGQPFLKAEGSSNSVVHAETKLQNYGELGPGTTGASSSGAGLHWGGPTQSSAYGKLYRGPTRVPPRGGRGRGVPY
Sequence (O75909 whole entry partner): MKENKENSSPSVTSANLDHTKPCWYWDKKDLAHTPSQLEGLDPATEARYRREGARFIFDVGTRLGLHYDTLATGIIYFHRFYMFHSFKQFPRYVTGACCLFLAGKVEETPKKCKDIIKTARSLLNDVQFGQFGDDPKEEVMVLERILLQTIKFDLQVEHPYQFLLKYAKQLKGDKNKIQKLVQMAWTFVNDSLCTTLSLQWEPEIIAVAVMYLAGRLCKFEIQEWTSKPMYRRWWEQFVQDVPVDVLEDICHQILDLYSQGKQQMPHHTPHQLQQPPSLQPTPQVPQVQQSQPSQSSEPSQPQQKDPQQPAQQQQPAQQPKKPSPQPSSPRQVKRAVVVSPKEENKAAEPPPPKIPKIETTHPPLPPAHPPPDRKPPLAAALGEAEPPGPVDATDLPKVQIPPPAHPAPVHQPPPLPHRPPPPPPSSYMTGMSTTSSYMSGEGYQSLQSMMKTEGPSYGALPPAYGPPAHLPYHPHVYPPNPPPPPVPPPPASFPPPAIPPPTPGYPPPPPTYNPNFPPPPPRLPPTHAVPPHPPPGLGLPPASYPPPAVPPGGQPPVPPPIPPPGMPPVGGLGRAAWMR
Measured Metric: (IC50 CDK12 high ATP) to (Degradation DC50 CDK12) ratio

CC(C)c1cnn2c(NCc3nc4ccccc4[nH]3)nc(N3CCOC(C)(C)C3)nc12 = 399
Brc1cnn2c(NCc3nc4ccccc4[nH]3)nc(N3C[C@H]4CC[C@@H]3CN4)nc12 (single isomer, unassigned) [Example 316] = 519
COc1ccc2[nH]c(CNc3nc(N4CCN(C)CC4)nc4c(Br)cnn34)nc2c1 = 11233

(a) Brc1cnn2c(NCc3nc4ccccc4[nH]3)nc(N3C[C@@H]4C[C@H]3CO4)nc12
(b) Fc1cc(-c2nnc(CNc3nc(N4CCOCC4)nc4c(Br)cnn34)[nH]2)cc(F)c1F
q: Choose between a and b : whose measured (IC50 CDK12 high ATP) to (Degradation DC50 CDK12) ratio value is numerically larger? Your answer should be the label attached to the chosen record.
a: a
(a: 1914, b: 122)

###

molecular target: CDK9/CycT1 (Homo sapiens, UniProt P50750); construct: Recombinant full-length His-tagged human CDK9 and CycT1; purchased Life Technologies PV4131; host or cells: insect cells; assay: CDK9/CycT1 high ATP kinase assay (TR-FRET, 2 mM ATP); type: biochemical; conditions: 2 mM ATP (high ATP); median; read-out: CDK9/CyclinT1, 2 mM ATP (high ATP), IC50 (median)
Sequence (P50750 whole entry): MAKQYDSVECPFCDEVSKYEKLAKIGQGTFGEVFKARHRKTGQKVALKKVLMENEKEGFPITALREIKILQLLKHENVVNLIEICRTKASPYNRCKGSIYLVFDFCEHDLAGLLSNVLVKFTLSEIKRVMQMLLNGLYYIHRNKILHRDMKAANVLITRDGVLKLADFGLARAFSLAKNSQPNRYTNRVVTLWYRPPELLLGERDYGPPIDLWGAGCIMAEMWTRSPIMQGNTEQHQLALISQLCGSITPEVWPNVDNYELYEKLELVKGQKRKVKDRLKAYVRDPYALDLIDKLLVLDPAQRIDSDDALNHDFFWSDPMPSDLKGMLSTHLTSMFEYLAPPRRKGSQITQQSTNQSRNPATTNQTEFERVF
Sequence (O60563 whole entry partner): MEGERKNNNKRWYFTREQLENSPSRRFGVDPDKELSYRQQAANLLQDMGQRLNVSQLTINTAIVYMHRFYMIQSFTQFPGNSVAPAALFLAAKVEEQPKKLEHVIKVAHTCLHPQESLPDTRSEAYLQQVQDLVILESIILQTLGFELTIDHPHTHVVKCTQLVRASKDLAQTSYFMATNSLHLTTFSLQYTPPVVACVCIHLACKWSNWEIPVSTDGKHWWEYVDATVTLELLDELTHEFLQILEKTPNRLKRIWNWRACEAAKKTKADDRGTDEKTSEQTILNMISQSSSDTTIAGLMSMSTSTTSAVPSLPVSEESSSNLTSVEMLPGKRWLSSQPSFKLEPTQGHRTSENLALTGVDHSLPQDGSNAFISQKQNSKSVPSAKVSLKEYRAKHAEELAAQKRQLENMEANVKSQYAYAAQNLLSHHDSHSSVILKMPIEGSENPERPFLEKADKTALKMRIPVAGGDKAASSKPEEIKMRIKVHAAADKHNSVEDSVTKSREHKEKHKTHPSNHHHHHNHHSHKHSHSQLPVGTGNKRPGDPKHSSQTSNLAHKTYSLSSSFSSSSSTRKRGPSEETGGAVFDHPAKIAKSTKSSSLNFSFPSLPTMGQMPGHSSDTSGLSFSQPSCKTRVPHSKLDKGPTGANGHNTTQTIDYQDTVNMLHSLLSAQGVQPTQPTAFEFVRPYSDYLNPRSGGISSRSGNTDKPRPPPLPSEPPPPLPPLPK
pIC50: −log10 of the molar value.
Measured Metric: pIC50

CC[C@@H](CO)Nc1nc(NCc2nc3ccccc3[nH]2)n2ncc(Br)c2n1 = 4.75
FC(F)(F)Oc1cccc(-c2cnc(CNc3nc(N4CCOCC4)nc4c(Br)cnn34)[nH]2)c1 = 4.90
CN(CC(C)(C)O)c1nc(NCc2nc3c(F)c(Cl)ccc3[nH]2)n2ncc(C3CC3)c2n1 = 5.23
Fc1ccc2[nH]c(CNc3nc(N4CC5CCC(C4)N5)nc4c(C(F)(F)F)cnn34)nc2c1F = 5.07
Cc1cc2nc(CNc3nc(N4CC5CCC(C4)N5)nc4c(Br)cnn34)[nH]c2cc1C = 4.90

(P) Brc1cnn2c(NCc3nnc(-c4ccccc4)[nH]3)nc(N3CCOCC3)nc12
(Q) CCNc1nc(NCc2nc(-c3ccc(C)cc3)c[nH]2)n2ncc(Br)c2n1
(R) FC(F)(F)c1cccc(-c2nnc(CNc3nc(N4CCOCC4)nc4c(Br)cnn34)[nH]2)c1
(S) C[C@@H]1CN(c2nc(NCc3nnc(-c4ccccc4)[nH]3)n3ncc(Br)c3n2)C[C@H](C)O1
(T) Cc1[nH]c(CNc2nc(N3CCOCC3)nc3c(Br)cnn23)nc1-c1ccccc1
q: Reorder: pIC50, max to min. // format: requested-order list of labels
a: S, R, P, Q, T

###

Each entry below carries its recorded pIC50.
molecular target: CDK12/CycK (Homo sapiens, UniProt Q9NYV4); assay: CDK12/CycK high ATP kinase assay (TR-FRET, 2 mM ATP); settings: 2 mM ATP (high ATP); median; read-out: CDK12/CyclinK, 2 mM ATP (high ATP), IC50-[mol/l] (median)
Sequence (Q9NYV4 with tags, fused parts or gaps): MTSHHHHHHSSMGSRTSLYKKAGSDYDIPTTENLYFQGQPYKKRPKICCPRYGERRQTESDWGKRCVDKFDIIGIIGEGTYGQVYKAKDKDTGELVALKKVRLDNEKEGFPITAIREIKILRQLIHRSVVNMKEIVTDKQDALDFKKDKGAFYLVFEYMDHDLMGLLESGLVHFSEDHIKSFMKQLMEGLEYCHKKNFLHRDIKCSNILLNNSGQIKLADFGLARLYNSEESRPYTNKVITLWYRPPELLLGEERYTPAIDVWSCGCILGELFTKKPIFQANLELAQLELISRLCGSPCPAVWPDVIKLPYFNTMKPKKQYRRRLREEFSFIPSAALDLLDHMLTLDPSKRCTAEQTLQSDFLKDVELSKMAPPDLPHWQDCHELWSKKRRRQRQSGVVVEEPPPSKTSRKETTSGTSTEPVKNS
Sequence (O75909 1-300 partner limits assumed): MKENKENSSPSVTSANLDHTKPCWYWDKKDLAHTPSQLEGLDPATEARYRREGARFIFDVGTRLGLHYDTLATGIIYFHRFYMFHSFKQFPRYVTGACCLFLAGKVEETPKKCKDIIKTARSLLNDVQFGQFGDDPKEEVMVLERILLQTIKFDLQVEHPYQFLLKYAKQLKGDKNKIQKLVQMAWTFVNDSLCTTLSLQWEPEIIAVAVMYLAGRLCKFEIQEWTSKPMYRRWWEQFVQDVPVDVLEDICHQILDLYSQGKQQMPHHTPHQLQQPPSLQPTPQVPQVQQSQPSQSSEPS
pIC50: −log10 of the molar value.

Solved cases (3 shown):
CC(=O)NCCCc1cccc2[nH]c(CNc3nc(N4CCOCC4)nc4c(Br)cnn34)nc12.O=CO [Example 115] = 4.94
COC(C)(C)COc1nc(NCc2nc3ccccc3[nH]2)n2ncc(Br)c2n1 [Example 403] = < 4.70
CN(C)[C@@H]1CCN(c2nc(NCc3nc4ccccc4[nH]3)n3ncc(Br)c3n2)C1 [Example 178] = < 4.70

q: For c1ccc(-c2cnn3c(NCc4nc5ccccc5[nH]4)nc(N4CCOCC4)nc23)cc1 [Example 104] , what is its reported pIC50?
a: < 4.70
